# testedOn: T1, human GIP receptor (human, UniProt P48546 22-466)
# T1 sequence (looked up): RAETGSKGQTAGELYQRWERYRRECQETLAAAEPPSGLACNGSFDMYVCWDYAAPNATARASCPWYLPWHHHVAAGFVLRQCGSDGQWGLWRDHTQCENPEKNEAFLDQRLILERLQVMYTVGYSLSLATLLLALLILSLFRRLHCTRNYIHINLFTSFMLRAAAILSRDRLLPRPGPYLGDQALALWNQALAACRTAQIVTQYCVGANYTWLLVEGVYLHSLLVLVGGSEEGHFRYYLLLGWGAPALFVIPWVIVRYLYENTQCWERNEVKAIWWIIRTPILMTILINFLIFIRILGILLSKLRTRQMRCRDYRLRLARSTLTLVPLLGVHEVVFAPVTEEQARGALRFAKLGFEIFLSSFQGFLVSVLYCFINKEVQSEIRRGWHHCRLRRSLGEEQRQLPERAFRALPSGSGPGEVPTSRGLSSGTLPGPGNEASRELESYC
# methodNotes: cell-based or functional assay
Numbered stars: 1 amine (or outer) side, 2 acyl side, 3 side chain; on linkers, the order of the positions; unused ones are H or OH. Square brackets hold non-standard residues; d marks the D form. Side chains are listed from the residue outwards. Ends that are not written are not given here. * marks the point of attachment. C20 diacid = O=C(O)CCCCCCCCCCCCCCCCCCC(=O)*; γGlu = O=C(O)[C@H](CCC(=O)[*:2])N[*:1]; Desaminohistidyl = O=C(CCc1c[nH]cn1)*; AEEA = NCCOCCOCC(=O)O; Aib = CC(C)(N)C(=O)O
Cut-off 0.2 nM on hGIPR cAMP Rel EC50, inclusive. At or above means rule met; below means rule not met.

| binder | qualitativeLabel |
| --- | --- |
| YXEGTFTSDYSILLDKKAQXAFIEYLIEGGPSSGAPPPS (Aib2; K17((2-[2-(2-Amino-ethoxy)-ethoxy]-acetyl)2-(γ-Glu)-CO-(CH2)18-CO2H); Aib20; C-terminal NH2) [Example 8] | rule not met |
| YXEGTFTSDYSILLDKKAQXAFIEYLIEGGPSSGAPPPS (Aib2; K17((2-[2-(2-Amino-ethoxy)-ethoxy]-acetyl)-(ϵK)-(γ-Glu)-CO-(CH2)18-CO2H); Aib20; C-terminal NH2) [Example 112] | rule not met |
| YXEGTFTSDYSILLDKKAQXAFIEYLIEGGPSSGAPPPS (Aib2; K17((2-[2-(2-Amino-ethoxy)-ethoxy]-acetyl)2-(ϵK)-CO-(CH2)18-CO2H); Aib20; C-terminal NH2) [Example 113] | rule not met |
| YXEGTFTSDYSIXLDEKAQXAFIEYLLEGGPSSGAPPPS (not fully specified; Aib2; αMeF13 as printed (likely αMeL13); K17((2-[2-(2-Amino-ethoxy)-ethoxy]-acetyl)2-(γ-Glu)-CO-(CH2)18-CO2H); Aib20; C-terminal NH2) [Example 66] | rule not met |
| XAEGTFTSDYSILLDKKAQXAFIEYLIEGGPSSGAPPPS (N-terminal Ac; D-Tyr1; K17((2-[2-(2-Amino-ethoxy)-ethoxy]-acetyl)2-(γ-Glu)-CO-(CH2)18-CO2H); Aib20; C-terminal NH2) [Example 79] | rule not met |
| XXEGTFTSDYSILLDKKAQXAFIEYLIEGGPSSGAPPPS (DesTyr1; Aib2; K17((2-[2-(2-Amino-ethoxy)-ethoxy]-acetyl)2-(γ-Glu)-CO-(CH2)18-CO2H); Aib20; C-terminal NH2) [Example 107] | rule met |
| Y[Aib]EGTFTSDYSILLDKIAQ[Aib]AFK([AEEA-AEEA-γGlu-C20 diacid])EYLIEGGPSSGAPPPS-NH2 [Example 33] | rule met |
| [Desaminohistidyl][Aib]EGTFTSDYSILLDKK([AEEA-AEEA-γGlu-C20 diacid])AQ[Aib]AFIEYLIEGGPSSGAPPPS-NH2 (also: ψ[NHCO] bond between DesHis1 and Aib2) [Example 105] | rule met |
| YXEGTXTSDYSILLDKIAQXKFIEYLIEGG (Aib2; αMeF6; Aib20; K21((2-[2-(2-Amino-ethoxy)-ethoxy]-acetyl)2-(γ-Glu)-CO-(CH2)18-CO2H); C-terminal NH2) [Example 94] | rule met |
| [Desaminohistidyl][Aib]EGTFTSDYSILLDKK([AEEA-AEEA-γGlu-C20 diacid])AQ[Aib]AFIEYLIEGGPSSGAPPPS-NH2 [Example 106] | rule met |
| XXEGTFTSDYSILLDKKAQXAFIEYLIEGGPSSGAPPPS (D-Tyr1; Aib2; K17((2-[2-(2-Amino-ethoxy)-ethoxy]-acetyl)2-(γ-Glu)-CO-(CH2)18-CO2H); Aib20; C-terminal NH2) [Example 78] | rule met |
